Provenance of the data: the supplement of paper PMC3334620

Each entry below lists one item and its recorded PBM E-score value.
biological target: Hap1 (UniProt P0CE41); experiment: PBM E-score (8-mer binding enrichment) (E-score (-0.5 to 0.5)); higher = stronger / more preferred TF binding; conditions: protein concentration: 200 nM; construct: GST-DNA-binding domain
Sequence (P0CE41 whole entry, the tested form may be a part): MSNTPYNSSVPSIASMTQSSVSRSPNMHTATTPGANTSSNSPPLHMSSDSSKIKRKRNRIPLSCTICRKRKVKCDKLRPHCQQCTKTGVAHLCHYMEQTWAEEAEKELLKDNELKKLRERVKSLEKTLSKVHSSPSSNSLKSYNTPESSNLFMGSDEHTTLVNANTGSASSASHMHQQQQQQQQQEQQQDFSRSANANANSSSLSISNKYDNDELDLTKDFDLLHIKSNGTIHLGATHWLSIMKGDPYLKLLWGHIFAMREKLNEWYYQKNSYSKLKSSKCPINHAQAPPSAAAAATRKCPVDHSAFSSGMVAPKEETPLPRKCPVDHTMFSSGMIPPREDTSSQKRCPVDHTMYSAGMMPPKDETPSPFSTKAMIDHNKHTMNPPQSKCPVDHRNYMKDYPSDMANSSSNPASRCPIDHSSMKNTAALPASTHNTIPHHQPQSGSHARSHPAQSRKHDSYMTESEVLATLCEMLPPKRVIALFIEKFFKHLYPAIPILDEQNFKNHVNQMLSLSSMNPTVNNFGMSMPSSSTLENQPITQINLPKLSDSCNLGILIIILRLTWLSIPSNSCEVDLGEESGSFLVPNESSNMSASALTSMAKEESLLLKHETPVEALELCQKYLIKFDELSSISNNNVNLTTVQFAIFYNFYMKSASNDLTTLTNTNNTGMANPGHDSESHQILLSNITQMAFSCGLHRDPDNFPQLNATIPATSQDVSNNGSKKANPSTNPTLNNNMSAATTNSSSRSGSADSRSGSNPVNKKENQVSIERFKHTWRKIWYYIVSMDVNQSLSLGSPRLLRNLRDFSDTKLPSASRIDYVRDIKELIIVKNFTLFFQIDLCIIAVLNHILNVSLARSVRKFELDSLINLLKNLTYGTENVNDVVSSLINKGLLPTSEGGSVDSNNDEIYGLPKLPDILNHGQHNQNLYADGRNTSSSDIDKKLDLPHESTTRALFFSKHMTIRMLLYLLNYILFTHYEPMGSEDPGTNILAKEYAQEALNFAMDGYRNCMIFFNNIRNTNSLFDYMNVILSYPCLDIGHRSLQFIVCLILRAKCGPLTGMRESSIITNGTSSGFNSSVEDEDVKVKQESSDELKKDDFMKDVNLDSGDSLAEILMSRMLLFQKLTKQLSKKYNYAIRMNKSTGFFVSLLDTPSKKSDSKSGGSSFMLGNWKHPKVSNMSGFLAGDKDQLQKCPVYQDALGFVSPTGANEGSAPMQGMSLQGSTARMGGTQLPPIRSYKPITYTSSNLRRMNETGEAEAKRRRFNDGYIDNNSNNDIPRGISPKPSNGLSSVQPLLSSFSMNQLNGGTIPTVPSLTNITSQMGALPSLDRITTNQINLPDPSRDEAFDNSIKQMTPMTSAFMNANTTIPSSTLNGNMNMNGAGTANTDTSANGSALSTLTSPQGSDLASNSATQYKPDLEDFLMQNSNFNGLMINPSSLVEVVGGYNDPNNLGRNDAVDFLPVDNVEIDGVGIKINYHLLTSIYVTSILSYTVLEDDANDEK
Whole data set: some 33,000 sequences, median “E-score (-0.5 to 0.5)” near -0.053, cut for the highest 2% near 0.37. The list comes from a sample in which the highest values are over-represented; it also holds close analogues and randomly drawn sequences.
VALUE_KIND: PBM E-score

SEQUENCE_INPUT: GAAAGACA
OBS_VALUE: -0.0415
//
SEQUENCE_INPUT: CCATCAAA
OBS_VALUE: -0.17
//
SEQUENCE_INPUT: CCCCGCAA
OBS_VALUE: 0.258
//
SEQUENCE_INPUT: AGGCGTAT
OBS_VALUE: -0.311
//
SEQUENCE_INPUT: AAATACGA
OBS_VALUE: -0.0883
//
SEQUENCE_INPUT: ACTTCGGA
OBS_VALUE: 0.403
//
SEQUENCE_INPUT: ACGATTGG
OBS_VALUE: -0.123
//
SEQUENCE_INPUT: CGGTGAGA
OBS_VALUE: 0.12
//
SEQUENCE_INPUT: CCAGACGA
OBS_VALUE: -0.0873
//
SEQUENCE_INPUT: CCTTAGGC
OBS_VALUE: -0.184
//
SEQUENCE_INPUT: ACCGACAG
OBS_VALUE: 0.289

====

target: Hap1 (UniProt P0CE41); test: PBM E-score (8-mer binding enrichment) (E-score (-0.5 to 0.5)); higher = stronger / more preferred TF binding; conditions: protein concentration: 200 nM; construct: GST-DNA-binding domain
Whole data set: some 33,000 sequences, median “E-score (-0.5 to 0.5)” near -0.053, cut for the highest 2% near 0.37. This is one part of a sample in which the highest values are shown more often than they occur.
VALUE_KIND: PBM E-score

SEQUENCE_INPUT: AACCCTCA
VALUE_KIND: PBM E-score
OBS_VALUE: -0.135
//
SEQUENCE_INPUT: GACTCCGC
VALUE_KIND: PBM E-score
OBS_VALUE: 0.174
//
SEQUENCE_INPUT: GAAGGCAA
VALUE_KIND: PBM E-score
OBS_VALUE: -0.137
//
SEQUENCE_INPUT: CAGTGTTC
VALUE_KIND: PBM E-score
OBS_VALUE: -0.0181
//
SEQUENCE_INPUT: CACAGTCA
VALUE_KIND: PBM E-score
OBS_VALUE: -0.284
//
SEQUENCE_INPUT: AACTCCCG
VALUE_KIND: PBM E-score
OBS_VALUE: 0.333
//
SEQUENCE_INPUT: ACCCTGGC
VALUE_KIND: PBM E-score
OBS_VALUE: -0.146
//
SEQUENCE_INPUT: GACATCCA
VALUE_KIND: PBM E-score
OBS_VALUE: -0.175
//
SEQUENCE_INPUT: CCAAGGAA
VALUE_KIND: PBM E-score
OBS_VALUE: -0.0481
//
SEQUENCE_INPUT: ACTCTTGG
VALUE_KIND: PBM E-score
OBS_VALUE: -0.22
//
SEQUENCE_INPUT: AAAAACTC
VALUE_KIND: PBM E-score
OBS_VALUE: 0.0741
//
SEQUENCE_INPUT: CCGGAGCA
VALUE_KIND: PBM E-score
OBS_VALUE: 0.418
//
SEQUENCE_INPUT: GCATTAGA
VALUE_KIND: PBM E-score
OBS_VALUE: -0.112
//
SEQUENCE_INPUT: ATCTAAAT
VALUE_KIND: PBM E-score
OBS_VALUE: 0.149
//
SEQUENCE_INPUT: GGAGTTAA
VALUE_KIND: PBM E-score
OBS_VALUE: 0.429
//
SEQUENCE_INPUT: AGGACAGC
VALUE_KIND: PBM E-score
OBS_VALUE: -0.0413
//
SEQUENCE_INPUT: CACTCCGC
VALUE_KIND: PBM E-score
OBS_VALUE: 0.156
//
SEQUENCE_INPUT: CTTCTAGA
VALUE_KIND: PBM E-score
OBS_VALUE: -0.156
//
SEQUENCE_INPUT: AACCTGTG
VALUE_KIND: PBM E-score
OBS_VALUE: -0.315
//
SEQUENCE_INPUT: GATTTTGC
VALUE_KIND: PBM E-score
OBS_VALUE: -0.0335
//
SEQUENCE_INPUT: CCGGAGAC
VALUE_KIND: PBM E-score
OBS_VALUE: 0.373
//
SEQUENCE_INPUT: CACCACAA
VALUE_KIND: PBM E-score
OBS_VALUE: -0.117
//
SEQUENCE_INPUT: GCCGGCAA
VALUE_KIND: PBM E-score
OBS_VALUE: 0.373
//
SEQUENCE_INPUT: ACCGGCAA
VALUE_KIND: PBM E-score
OBS_VALUE: 0.272
//
SEQUENCE_INPUT: AGAGTTAC
VALUE_KIND: PBM E-score
OBS_VALUE: -0.312
//
SEQUENCE_INPUT: GCGTTGTA
VALUE_KIND: PBM E-score
OBS_VALUE: -0.0982
//
SEQUENCE_INPUT: AACTCCGT
VALUE_KIND: PBM E-score
OBS_VALUE: 0.447
//
SEQUENCE_INPUT: CACTCCGA
VALUE_KIND: PBM E-score
OBS_VALUE: 0.212
//
SEQUENCE_INPUT: ATGCCTAA
VALUE_KIND: PBM E-score
OBS_VALUE: -0.21
//
SEQUENCE_INPUT: AAATAACC
VALUE_KIND: PBM E-score
OBS_VALUE: 0.0225
//
SEQUENCE_INPUT: TACTCCGA
VALUE_KIND: PBM E-score
OBS_VALUE: 0.375
//
SEQUENCE_INPUT: CACTCCGG
VALUE_KIND: PBM E-score
OBS_VALUE: 0.302
//
SEQUENCE_INPUT: ATGAGTCC
VALUE_KIND: PBM E-score
OBS_VALUE: 0.0718
//
SEQUENCE_INPUT: AGTCAGAT
VALUE_KIND: PBM E-score
OBS_VALUE: -0.212
//
SEQUENCE_INPUT: TGAGTTAA
VALUE_KIND: PBM E-score
OBS_VALUE: -0.188
//
SEQUENCE_INPUT: CGGCAGGA
VALUE_KIND: PBM E-score
OBS_VALUE: 0.175
//
SEQUENCE_INPUT: AATACTTG
VALUE_KIND: PBM E-score
OBS_VALUE: -0.112
//
SEQUENCE_INPUT: CATGTCTC
VALUE_KIND: PBM E-score
OBS_VALUE: 0.131
//
SEQUENCE_INPUT: GCGGAGAC
VALUE_KIND: PBM E-score
OBS_VALUE: 0.348
//
SEQUENCE_INPUT: CGCGTAAA
VALUE_KIND: PBM E-score
OBS_VALUE: 0.188

====

Each entry below lists one item and its recorded PBM E-score value.
target: Hap1 (UniProt P0CE41); assay: PBM E-score (8-mer binding enrichment) (E-score (-0.5 to 0.5)); higher = stronger / more preferred TF binding; settings: protein concentration: 200 nM; construct: GST-DNA-binding domain
Over roughly 33,000 sequences, “E-score (-0.5 to 0.5)” has its median near -0.053; the highest 2% begin near 0.37. This is one part of a sample in which the highest values are shown more often than they occur.

SEQUENCE_INPUT: GCACTCGC
TARGET_DESC: Hap1 (UniProt P0CE41)
PBM E-score: -0.0299
//
SEQUENCE_INPUT: CCGGTGGA
TARGET_DESC: Hap1 (UniProt P0CE41)
PBM E-score: 0.39
//
SEQUENCE_INPUT: ATCCGGGC
TARGET_DESC: Hap1 (UniProt P0CE41)
PBM E-score: 0.364
//
SEQUENCE_INPUT: ATCCGGGG
TARGET_DESC: Hap1 (UniProt P0CE41)
PBM E-score: 0.399
//
SEQUENCE_INPUT: CAAGATAA
TARGET_DESC: Hap1 (UniProt P0CE41)
PBM E-score: -0.0149

====

molecular target: Hap1 (UniProt P0CE41); test: PBM E-score (8-mer binding enrichment) (E-score (-0.5 to 0.5)); higher = stronger / more preferred TF binding; conditions: protein concentration: 200 nM; construct: GST-DNA-binding domain
Over roughly 33,000 sequences, “E-score (-0.5 to 0.5)” has its median near -0.053; the highest 2% begin near 0.37. The full list was thinned out, with the highest values kept by preference.
Each entry below lists one item and its recorded PBM E-score value.
VALUE_KIND: PBM E-score

SEQUENCE_INPUT: TCGAGAAA
OBS_VALUE: -0.271
--
SEQUENCE_INPUT: GCCGTCCA
OBS_VALUE: 0.0557
--
SEQUENCE_INPUT: ACCGATAG
OBS_VALUE: 0.373
--
SEQUENCE_INPUT: GGCCGGCC
OBS_VALUE: 0.367
--
SEQUENCE_INPUT: CATTGAAA
OBS_VALUE: -0.0176
--
SEQUENCE_INPUT: CCCGATCC
OBS_VALUE: 0.31
--
SEQUENCE_INPUT: CCGAGCGC
OBS_VALUE: 0.384
--
SEQUENCE_INPUT: CCGAGAGC
OBS_VALUE: 0.396
--
SEQUENCE_INPUT: AGCGATAA
OBS_VALUE: 0.284
--
SEQUENCE_INPUT: ACGAGCGG
OBS_VALUE: 0.161
--
SEQUENCE_INPUT: CCGAGCCG
OBS_VALUE: 0.397
--
SEQUENCE_INPUT: ACCGATTA
OBS_VALUE: 0.335
